# Target entity: Ubiquitin carboxyl-terminal hydrolase 1/WD repeat-containing protein 48 (Homo sapiens, UniProt O94782+Q8TAF3)
# Sequence (O94782 whole entry): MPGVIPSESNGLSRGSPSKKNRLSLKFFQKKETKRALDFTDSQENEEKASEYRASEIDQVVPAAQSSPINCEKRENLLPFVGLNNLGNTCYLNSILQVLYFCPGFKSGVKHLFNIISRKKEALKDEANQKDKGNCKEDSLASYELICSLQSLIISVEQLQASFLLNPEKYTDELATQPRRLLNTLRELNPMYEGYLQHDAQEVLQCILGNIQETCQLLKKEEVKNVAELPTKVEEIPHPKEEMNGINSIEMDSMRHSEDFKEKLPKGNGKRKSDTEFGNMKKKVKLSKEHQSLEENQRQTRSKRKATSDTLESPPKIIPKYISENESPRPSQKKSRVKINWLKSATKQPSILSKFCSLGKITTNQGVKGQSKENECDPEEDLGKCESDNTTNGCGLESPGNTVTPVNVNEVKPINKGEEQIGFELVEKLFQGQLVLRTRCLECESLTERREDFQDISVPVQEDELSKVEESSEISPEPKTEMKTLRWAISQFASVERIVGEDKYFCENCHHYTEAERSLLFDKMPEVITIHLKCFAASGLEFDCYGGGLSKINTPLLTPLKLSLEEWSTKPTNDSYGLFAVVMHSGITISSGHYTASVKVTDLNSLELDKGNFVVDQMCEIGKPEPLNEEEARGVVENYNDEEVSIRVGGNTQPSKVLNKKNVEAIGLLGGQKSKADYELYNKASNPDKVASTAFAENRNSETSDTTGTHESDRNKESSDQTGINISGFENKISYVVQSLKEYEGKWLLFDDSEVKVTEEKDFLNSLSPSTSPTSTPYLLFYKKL
# Sequence (Q8TAF3 whole entry): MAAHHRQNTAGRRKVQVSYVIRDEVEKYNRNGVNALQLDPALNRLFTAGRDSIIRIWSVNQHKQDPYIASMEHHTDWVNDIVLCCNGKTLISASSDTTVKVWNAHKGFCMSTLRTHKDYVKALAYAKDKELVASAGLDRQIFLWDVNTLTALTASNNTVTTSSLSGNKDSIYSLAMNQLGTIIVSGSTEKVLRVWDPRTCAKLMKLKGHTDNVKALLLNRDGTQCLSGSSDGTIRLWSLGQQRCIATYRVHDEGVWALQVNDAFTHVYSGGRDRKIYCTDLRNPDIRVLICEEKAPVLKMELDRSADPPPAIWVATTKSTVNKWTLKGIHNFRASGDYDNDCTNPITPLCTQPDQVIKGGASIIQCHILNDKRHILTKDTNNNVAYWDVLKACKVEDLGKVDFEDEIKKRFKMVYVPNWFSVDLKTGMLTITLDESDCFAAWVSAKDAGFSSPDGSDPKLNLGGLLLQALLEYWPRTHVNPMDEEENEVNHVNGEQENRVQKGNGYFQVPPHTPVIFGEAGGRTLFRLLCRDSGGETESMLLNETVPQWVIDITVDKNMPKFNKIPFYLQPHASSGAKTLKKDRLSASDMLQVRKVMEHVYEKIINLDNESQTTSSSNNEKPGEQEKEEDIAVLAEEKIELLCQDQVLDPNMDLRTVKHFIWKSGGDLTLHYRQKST
# Experiment summary: In Vitro USP1  Inhibitory Activity
Property label: IC50
Report field: quantity (unit follows the number).

Record COc1cnc(-c2c(OC)ncnc2C2CC2)nc1N(C)CC12CCC(c3nc(C(F)(F)F)cn3C)(CC1)OC2 . Reported IC50: 19 nM

Record COc1cc(-n2nc(C(F)(F)F)cc2C)ccc1CNc1nc(-c2ccccc2C(C)C)nc2ccoc12 . Reported IC50: 4.4 nM

Record COc1ncnc(C2CC2)c1-c1ncc(C#N)c(NCc2ccc(-c3nc(C(F)(F)F)cn3C)cc2)n1 . Reported IC50: 7.4 nM
